- Tested on: H1N1 A/New Caledonia/20/99
- Method Notes: microbe, parasite or virus in culture
- Assay type: cell-based, influenza A virus
- Recorded Conditions: Influenza A virus, H1N1, MDCK, 96 h, read-out: Virus neutralization assay (VNA), pEC50 H1N1 A/New Caledonia/20/99 (converted)
Experimental Endpoint: log10(EC50) (log10 of the value in nM)
Scale type: logarithmic (base 10). Underlying EC50 unit: nM.

# get_value(readout='log10(EC50)', item= Cn1nnc([C@@H](c2ccccc2)N2CCN(C(=O)c3cc(-c4nc5cc(OC(F)(F)F)ccc5o4)ccn3)CC2)n1 [Example 133] ) 1.40

# get_value(readout='log10(EC50)', item= Cc1nnc([C@@H](c2ccccc2)N2CCN(C(=O)c3cc(-c4nc5cc(C(F)(F)F)ccc5o4)ccc3F)CC2)o1 [Example 45] ) 2.50

# get_value(readout='log10(EC50)', item= [2H]C([2H])([2H])c1nnc(C(c2ccccc2)N2CCN(C(=O)c3cccc(-c4nc5cc(C(F)(F)F)ccc5o4)c3)CC2)o1 (stereo not shown) [Example 70] ) 2.80

# get_value(readout='log10(EC50)', item= COC(=O)C(c1ccccc1)N1CCN(C(=O)c2cccc(-c3nc4cc(OC)ccc4o3)c2)CC1 (stereo not shown) [Example 13] ) 1.70

# get_value(readout='log10(EC50)', item= COC(=O)C(c1ccccc1)N1CCN(C(=O)c2cncc(-c3nc4ccc(OC)cc4s3)c2)CC1 (stereo not shown) [Example 54] ) 2.60

# get_value(readout='log10(EC50)', item= Cc1nnc([C@@H](c2ccccc2)N2CCN(C(=O)c3cc(F)cc(-c4nc5cc(C(F)(F)F)ccc5o4)c3)CC2)o1 [Example 63] ) 2.70

# get_value(readout='log10(EC50)', item= Cc1nnc(C(c2ccccc2)N2CCN(C(=O)c3cccc(-c4nc5cc(O)ccc5o4)c3)CC2)o1 (stereo not shown) [Example 44] ) 2.50
